// provenance: patent US8124744B2

// MIC lookup, one value per entry
# Tested on: Staphylococcus aureus ATCC29213

Reference set, count: 3
# Structure notation, Result
rows = [
    ("CC[C@H]1OC(=O)[C@H](C)[C@@H](O[C@H]2C[C@@](C)(OC)[C@@H](OC(C)=O)[C@H](C)O2)[C@H](C)[C@@H](O[C@@H]2O[C@H](C)C[C@@H](N3CC[C@@H](O)C3)[C@@H]2N(C)C)[C@@](C)(OC)C[C@@H](C)C(=O)[C@H](C)[C@@H](O)[C@]1(C)O", "> 128 µg/mL"),
    ("CC[C@H]1OC(=O)[C@H](C)C(=O)[C@H](C)[C@@H](O[C@@H]2O[C@H](C)C[C@H](N(C)C)[C@H]2OC)[C@@](C)(OC)C[C@@H](C)C(=O)[C@H](C)[C@@H](O)[C@]1(C)O", "> 128 µg/mL"),
    ("CC[C@H]1OC(=O)[C@H](C)[C@@H](O[C@H]2C[C@@](C)(OC)[C@@H](OC(C)=O)[C@H](C)O2)[C@H](C)[C@@H](O[C@@H]2O[C@H](C)C[C@H](N(C)C)[C@H]2OCCCN2CCC(O)CC2)[C@@](C)(OC)C[C@@H](C)C(=O)[C@H](C)[C@@H](O)[C@]1(C)O", "> 128 µg/mL"),
]

Then there is this compound:
Report value only: MIC, Staphylococcus aureus ATCC29213, `CC[C@H]1OC(=O)[C@H](C)[C@@H](O[C@H]2C[C@@](C)(OC)[C@@H](O)[C@H](C)O2)[C@H](C)[C@@H](O[C@@H]2O[C@H](C)C[C@@H](N3CC[C@H](O)C3)[C@@H]2N(C)C)[C@@](C)(OC)C[C@@H](C)C(=O)[C@H](C)[C@@H](O)[C@]1(C)O` > 128 µg/mL

====

// MIC lookup, one value per entry
# Test system: Staphylococcus aureus ATCC29213

# Compound, Subject of test, MIC
records = [
    ("CC[C@H]1OC(=O)[C@H](C)[C@@H](O[C@H]2C[C@@](C)(OC)[C@@H](O)[C@H](C)O2)[C@H](C)[C@@H](O[C@@H]2O[C@H](C)C[C@H](N(C)CCCO)[C@H]2OC)[C@@](C)(OC)C[C@@H](C)C(=O)[C@H](C)[C@@H](O)[C@]1(C)O [Example 132]", "Staphylococcus aureus ATCC29213", "> 128 mg/L"),
]

Then there is this compound:
Give a short answer stating reported MIC for CC[C@H]1OC(=O)[C@H](C)[C@@H](O[C@H]2C[C@@](C)(OC)[C@@H](O)[C@H](C)O2)[C@H](C)[C@@H](O[C@@H]2O[C@H](C)C[C@@H](N(C)Cc3ccc(N4CCOCC4)cc3)[C@@H]2N(C)C)[C@@](C)(OC)C[C@@H](C)C(=O)[C@H](C)[C@@H](O)[C@]1(C)O [Example 182] . > 128 mg/L

====

Reported MIC values, Staphylococcus aureus ATCC29213.

Reference set, count: 2
# Structure notation, Subject of test, MIC
measured = [
    ("CC[C@H]1OC(=O)[C@H](C)[C@@H](O[C@H]2C[C@@](C)(OC)[C@@H](O)[C@H](C)O2)[C@H](C)[C@@H](O[C@@H]2O[C@H](C)C[C@H](N(C)CCCN(C)C)[C@H]2OC)[C@@](C)(OC)C[C@@H](C)C(=O)[C@H](C)[C@@H](O)[C@]1(C)O", "Staphylococcus aureus ATCC29213", "> 128 µg/mL"),
    ("CC[C@H]1OC(=O)[C@H](C)[C@@H](O[C@H]2C[C@@](C)(OC)[C@@H](OC(C)=O)[C@H](C)O2)[C@H](C)[C@@H](O[C@@H]2O[C@H](C)C[C@@H](N(C)Cc3ccncc3)[C@@H]2N(C)C)[C@@](C)(OC)C[C@@H](C)C(=O)[C@H](C)[C@@H](O)[C@]1(C)O", "Staphylococcus aureus ATCC29213", "> 128 µg/mL"),
]

Then there is this molecule:
Give a short answer stating reported MIC for `CC[C@H]1OC(=O)[C@H](C)[C@@H](O[C@H]2C[C@@](C)(OC)[C@@H](OC(C)=O)[C@H](C)O2)[C@H](C)[C@@H](O[C@@H]2O[C@H](C)C[C@H](N(C)C)[C@H]2OC)[C@@](C)(OC)C[C@@H](C)[C@H](OC(=O)CCN(C)C)[C@H](C)[C@@H](OC(=O)CCN(C)C)[C@]1(C)O` . > 128 µg/mL
